tested.on: recombinant human HPK1 (Homo sapiens (Human), UniProt Q92918)
Sequence (Q92918 whole entry): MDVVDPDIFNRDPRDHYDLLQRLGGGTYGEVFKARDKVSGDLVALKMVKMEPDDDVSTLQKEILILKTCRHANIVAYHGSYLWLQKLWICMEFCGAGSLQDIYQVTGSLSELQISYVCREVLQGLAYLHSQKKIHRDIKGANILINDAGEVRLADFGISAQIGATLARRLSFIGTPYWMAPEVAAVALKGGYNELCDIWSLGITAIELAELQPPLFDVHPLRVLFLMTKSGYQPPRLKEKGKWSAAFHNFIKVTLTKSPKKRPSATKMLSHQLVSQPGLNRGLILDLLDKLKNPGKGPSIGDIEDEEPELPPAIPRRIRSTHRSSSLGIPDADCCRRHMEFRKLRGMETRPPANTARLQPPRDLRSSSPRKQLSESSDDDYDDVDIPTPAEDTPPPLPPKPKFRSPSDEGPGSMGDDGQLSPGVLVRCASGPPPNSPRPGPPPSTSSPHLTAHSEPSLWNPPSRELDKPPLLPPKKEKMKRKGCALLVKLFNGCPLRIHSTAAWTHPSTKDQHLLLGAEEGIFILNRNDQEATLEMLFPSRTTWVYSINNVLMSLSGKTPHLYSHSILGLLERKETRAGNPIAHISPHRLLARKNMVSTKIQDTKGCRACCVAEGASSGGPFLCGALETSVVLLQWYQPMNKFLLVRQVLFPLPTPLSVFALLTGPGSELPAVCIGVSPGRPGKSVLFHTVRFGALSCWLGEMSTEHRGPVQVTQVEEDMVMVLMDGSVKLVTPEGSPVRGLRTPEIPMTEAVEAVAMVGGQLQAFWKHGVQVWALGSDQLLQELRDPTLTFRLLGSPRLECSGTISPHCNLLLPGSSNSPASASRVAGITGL
method.summary: HPK1 kinase assay (ADP-Glo)
run.conditions: 25 μM ATP, MBP substrate
quantity.kind: IC50

Summary: "Cc1c(F)c(S(C)(=O)=O)c2[nH]ncc2c1-c1ccc2nc(NC(=O)[C@@H]3C[C@@H]3F)sc2c1" , recombinant human HPK1 (Homo sapiens (Human), UniProt Q92918), IC50 = 0.101 to 0.5 µM

Summary: C[S+]([O-])c1c(F)c(Cl)c(-c2ccn3nc(NC(=O)[C@@H]4C[C@@H]4F)cc3c2)c2cn[nH]c12 (stereo partly shown) , recombinant human HPK1 (Homo sapiens (Human), UniProt Q92918), IC50 = < 0.1 µM

Summary: "O=C(Nc1cn2cc(-c3c(C(F)F)c(F)cc4[nH]ncc34)ccc2n1)[C@@H]1C[C@@H]1F" , recombinant human HPK1 (Homo sapiens (Human), UniProt Q92918), IC50 = < 0.1 µM

Summary: "CSc1ccc(-c2ccc3nc(NC(=O)[C@@H]4C[C@@H]4F)sc3c2)c2cn[nH]c12" , recombinant human HPK1 (Homo sapiens (Human), UniProt Q92918), IC50 = > 1 µM

Summary: CN(c1c(F)c(Cl)c(-c2ccn3nc(NC(=O)[C@@H]4C[C@@H]4F)cc3c2)c2cn[nH]c12)C1CCC(O)CC1 (stereo partly shown) , recombinant human HPK1 (Homo sapiens (Human), UniProt Q92918), IC50 = < 0.1 µM

Summary: "Cc1c(F)c(N(C)C)c2[nH]ncc2c1-c1ccn2nc(NC(=O)[C@@H]3C[C@@H]3F)cc2c1" , recombinant human HPK1 (Homo sapiens (Human), UniProt Q92918), IC50 = < 0.1 µM

Query compound follows.
Summary: "CN(C)c1c(F)cc(-c2ccc3nc(NC(=O)[C@@H]4C[C@@H]4F)sc3c2)c2cn[nH]c12" , recombinant human HPK1 (Homo sapiens (Human), UniProt Q92918), IC50 = < 0.1 µM
